target: HIV-1 reverse transcriptase (HXB2, group M subtype B) (Human immunodeficiency virus 1, UniProt P04585 SEQ:1-560); assay: inhibition; DDDP, K+ buffer; settings: tags: expressed in E. coli; hairpin + G4
Readings of IC50 for the listed binders
Just the number in nM, nothing appended.

Completed entries (count: 3):
* CGCCTGATTAGCGATACTCAGGCGTTGGGTGGGTGGGTGGG (ssDNA) [R1T] | 14
* RT6 (ssDNA) DNA: ATCCGCCTGATTAGCGATACTCAGGCGTTAGGGAAGGGCGTCGAAAGCAGGGTGGGACTTGAGCAAAATCACCTGCAGGG | 36
* RT6-A (ssDNA) DNA: ATCCGCCTGATTAGCGATACTCAGGCGTTAGGGAAGGGTAGCGATACAGGGTGGG | 16

Next item in the queue.
Ask | State, in one line, measured IC50 of RT6-B (Vor) (ssDNA) DNA: CGCCTGATTAGCGATACTCAGGCGTTAGGGAAGGGCGTCGAAAGCAGGGTGGG
Reply | 5.7
